Molecular target: T1, human CD30 (commercial, conjugated to digoxigenin) (human, UniProt P28908 19-379, limits assumed, conjugated to digoxigenin (DIG))
T1 sequence (looked up): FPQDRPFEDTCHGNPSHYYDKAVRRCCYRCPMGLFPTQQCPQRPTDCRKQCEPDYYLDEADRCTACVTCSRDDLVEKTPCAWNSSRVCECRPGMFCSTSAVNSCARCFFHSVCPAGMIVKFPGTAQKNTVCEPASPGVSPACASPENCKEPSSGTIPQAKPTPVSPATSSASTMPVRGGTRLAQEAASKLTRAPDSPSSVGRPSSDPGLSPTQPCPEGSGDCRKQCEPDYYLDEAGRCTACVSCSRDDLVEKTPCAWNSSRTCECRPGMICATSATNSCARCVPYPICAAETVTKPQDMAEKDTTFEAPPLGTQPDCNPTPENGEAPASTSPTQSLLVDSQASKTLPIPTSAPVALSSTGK
Experiment: AlphaScreen competition
propertyMeasured: Fold IC50 vs H3/L3 (fold)
Give a bare numeral; the unit fold is implied.

Some binders with recorded Fold IC50 vs H3/L3:
{"columns": ["binder", "Fold IC50 vs H3/L3 (fold)"],
 "data": [
  ["AC10 H3.24/L3 (antibody, IgG1, name in Kabat numbering, V domains shown) VH: QIQLVQSGPEVKKPGASVKVSCKASGYTFTDYYITWVRQAPGQGLEWMGWINPGSGNTKYNEKFQGRFVFSVDTSASTAYLQISSLKAEDTAVYFCANYGNYWFAYWGQGTLVTVSS VL: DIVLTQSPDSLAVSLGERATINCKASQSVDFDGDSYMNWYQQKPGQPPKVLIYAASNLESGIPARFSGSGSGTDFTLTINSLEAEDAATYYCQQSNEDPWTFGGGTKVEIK", 0.03],
  ["AC10 H3.50/L3 (antibody, IgG1, name in Kabat numbering, V domains shown) VH: QIQLVQSGPEVKKPGASVKVSCKASGYTFTDYYITWVRQAPGQGLEWMGWIYPGSGNTKYNEKFQGRFVFSVDTSASTAYLQISSLKAEDTAVYFCVNYGNYWFAYWGQGTLVTVSS VL: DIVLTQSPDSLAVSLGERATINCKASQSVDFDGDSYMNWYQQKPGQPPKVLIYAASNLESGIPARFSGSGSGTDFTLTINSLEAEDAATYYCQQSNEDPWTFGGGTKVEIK", 1.4],
  ["AC10 H3.17/L3 (antibody, IgG1, name in Kabat numbering, V domains shown) VH: QIQLVQSGPEVKKPGASVKVSCKASGYTFTDYYIHWVRQAPGQGLEWMGWIYPGSGNTKYNEKFQGRFVFSVDTSASTAYLQISSLKAEDTAVYFCANYGNYWFAYWGQGTLVTVSS VL: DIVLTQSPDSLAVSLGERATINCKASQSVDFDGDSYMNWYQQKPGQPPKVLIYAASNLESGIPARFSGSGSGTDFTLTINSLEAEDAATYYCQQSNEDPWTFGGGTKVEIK", 0.04]
]}

We now examine a further binder.
Which Fold IC50 vs H3/L3 reading was recorded for the binder AC10 H3.36/L3 (antibody, IgG1, name in Kabat numbering, V domains shown) VH: QIQLVQSGPEVKKPGASVKVSCKASGYTFTDYYITWVRQAPGQGLEWMGWIYPGSGNTKYSEKFQGRFVFSVDTSASTAYLQISSLKAEDTAVYFCANYGNYWFAYWGQGTLVTVSS VL: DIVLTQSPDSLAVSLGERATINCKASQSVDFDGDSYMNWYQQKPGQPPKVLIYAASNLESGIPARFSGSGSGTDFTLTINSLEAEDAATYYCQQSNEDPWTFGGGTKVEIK ?
1.24
